- TARGET_UNDER_TEST: T1, RSV nucleoprotein N-terminal domain NNTD (residues 31–252) (human respiratory syncytial virus, UniProt P03418 31-252)
- T1 construct: N-terminal domain of human RSV nucleoprotein N, residues 31-252; 15N-labelled for the NMR titration; also called N(31–252); 15N-NNTD; source: E. coli BL21(DE3), pET-N(31–252), purified as described previously [21]
- T1 sequence (looked up): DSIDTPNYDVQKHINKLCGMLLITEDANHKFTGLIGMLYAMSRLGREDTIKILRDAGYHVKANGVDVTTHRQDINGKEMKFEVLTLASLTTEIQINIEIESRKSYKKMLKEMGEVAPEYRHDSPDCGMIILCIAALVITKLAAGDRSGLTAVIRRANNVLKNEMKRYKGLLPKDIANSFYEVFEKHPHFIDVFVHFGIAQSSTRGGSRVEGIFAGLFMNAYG
- MEASUREMENT_PROTOCOL: fluorescence polarisation; 200 nM F11, NNTD 0.1–120 µM; 20 mM MES pH 6.5, 250 mM NaCl, 0.01% Brij-35; 20 °C; single site model; saturation not reached
- COND: both partners purified
Ends that are not written are not given here. * marks the point of attachment. FITC = O=C1OC2(c3ccc(O)cc3Oc3cc(O)ccc32)c2ccc(NC(=S)*)cc21
PARAMETER: Kd (µM)
Answers are plain numbers, in µM.

Requested read-out: Kd. Entry: {FITC}-DSDNDLSLEDF (C-terminal 11 residues of RSV phosphoprotein P; also called F_(11SS); FTU-P11; source: bought P11 peptide (GeneCust), FITC coupled in solution, HPLC purified) [F11 (fluorescein-5-thiourea-labelled RSV P11 peptide)]
90
